# target_or_test_system: NCL RBD2,3 (UniProt P19338 393-560)
# Sequence (P19338 393-560): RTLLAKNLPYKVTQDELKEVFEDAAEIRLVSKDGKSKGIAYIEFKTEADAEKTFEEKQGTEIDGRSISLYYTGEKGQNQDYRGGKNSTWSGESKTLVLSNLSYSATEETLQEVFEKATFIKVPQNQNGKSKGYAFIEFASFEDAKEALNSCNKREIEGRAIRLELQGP
# test: fluorescence titration; Hill n 0.49; SD exceeds Kd; K100: 100 mM KCl, 10 mM lithium cacodylate pH 7.2; 100 nM Cy5-oligonucleotide pre-annealed, 5 min equilibration per protein addition; temperature not stated
# experimental_context: label: 5'-Cy5; G-quadruplex
measured_metric: Kd (nM)
Give bare numbers, in nM.

Look up Kd for this binder: GGTGGTGGTGGTTGGTGGTGGTGG (structured_DNA) [Cy5-AT14-T2]
5.37
